System: MDA-MB-231 breast
Experiment: NCI-60 one-dose screen, 48 h (100 = growth as untreated, 0 = no growth, -100 = all killed)
Details: 10 µM unless noted
This is part of a sample that, as a whole, favours compounds with a hit. Of some 83,000 tested, about 20% had one in any assay. The source made the active and inactive calls. How the source made its calls: active means growth percent below 10; inactive means the rest.
OBSERVATION_TYPE: growth

Below, each entry is followed by its recorded growth result.
O=C(O)c1ccc(N=CC(=O)c2ccc(-c3ccccc3)cc2)cc1	101% (inactive)
O=C1Nc2ccc(Br)cc2C12Oc1ccccc1C1CC(c3ccc(F)cc3)=NN12 (stereo not given)	105% (inactive)
C#CCOc1ccc2ncnc(N3CCN(C(=O)CCl)CC3)c2c1	95.7% [8.25 µM] (inactive)

So what does the record say about growth for COc1ccc(C(=O)COc2cccc(/C=C3\CSc4ccccc4C3=O)c2)cc1 ?
76.6% (inactive)

Record: COc1ccc(-c2nnc(SCC(=O)c3ccc(Cl)cc3)o2)cc1
98.7% (inactive)

Ok, now CC/C=C\C[C@H]1C/C=C2/C(=O)C=C[C@H]2C/C=C\CCCC(=O)O1
40.5% (inactive)

Now the same for C=C1C(=O)O[C@H]2[C@H]1CC/C(COC(=O)NCc1ccc(OC)c(OC)c1)=C\CC[C@@]1(C)O[C@@H]21
55% (inactive)

Then this compound: COc1ccc(CN2c3ccccc3Sc3ccccc32)cc1O
41.2% (inactive)

Also check CN(C)CCCNc1c2ccccc2nc2ccccc12
85.2% (inactive)

C#CCOc1ccc2ncnc(NCc3cccc(NC(=O)CCl)c3)c2c1 ?
45.3% [8.25 µM] (inactive)

----------
Tested on: TK-10 renal
Experiment: NCI-60 one-dose screen, 48 h
Conditions: 10 µM unless noted
The panel holds about 83,000 compounds, 20% with a hit somewhere; the sample as a whole holds those more often. Activity calls are given as the source filed them. The calls were made as follows: active = growth percent below 10; inactive = the rest.
Choose one outcome from this list and give only that: yes = active, no = inactive

See these solved cases before continuing.
C=C(C)[C@@H]1CC[C@]2(C(=O)OC)CC[C@]3(C)[C@H](CC[C@@H]4[C@@]5(C)C/C(=C/c6ccc(OC)cc6)C(=O)C(C)(C)[C@@H]5CC[C@]43C)[C@@H]12	no
COc1cc(-c2nc3cc(Cl)c(Cl)cc3[nH]2)ccc1OCC(=O)N=Nc1c(O)[nH]c2ccccc12	yes
CN(C)[C@@H]1C(=O)C(C(=O)NCc2nc3[nH]cnc(=S)c3[nH]2)=C(O)[C@@]2(O)C(=O)C3=C(O)c4c(O)cccc4[C@@](C)(O)[C@H]3C[C@@H]12	no

What call does the record list for O=C(CN1C(=O)/C(=C/c2ccc(Cl)cc2)SC1=S)NCCCN1CCOCC1 ?
no

What about this compound? O=S(=O)(Nc1ccc(Br)c(Cl)c1)c1ccc(-c2cnc(C3CC3)o2)cc1
no

Field entry: O=[N+]([O-])c1cnc(N2CCN(CC3CC3)CC2)nc1N1CCN(CC2CC2)CC1
no

Same read-out for O=C(N/N=C/c1c[nH]c2ccccc12)c1cc(-c2ccccc2)on1 ?
no

How about this compound: COc1ccc(C(=O)/C=C/c2cccnc2Nc2cc(OC)c(OC)c(OC)c2)cc1
no

What do you get for O=CNc1ccc2c(c1)Cc1cccc(NC=O)c1-2 ?
no

----------
Tested on: 786-0 renal
Assay: NCI-60 one-dose screen, 48 h
Conditions: 10 µM unless noted
This is part of a sample that, as a whole, favours compounds with a hit. Of some 83,000 tested, about 20% had one in any assay. Calls of active or inactive are those of the source. The calls were made as follows: active = growth percent below 10; inactive = the rest.
One label from this list, please: active, inactive

Examples with answers:
CCOC(=O)c1c(C)oc2ncnc(N3CCN(C(=S)Nc4ccccc4)CC3)c12	inactive
CSc1nc2c(c(=O)[nH]1)C1(C(=O)Nc3ccccc31)c1c(nc(SC)[nH]c1=O)N2	inactive

Recorded test call requested for O=C(N/N=C/c1ccccc1O)c1ccccc1Nc1ccnc(C(F)(F)F)c1
active

Also need CNC(=O)c1cc(Oc2ccc(NC(=O)Nc3ccc(Cl)c(SC)c3)c(F)c2)ccn1 , thanks.
inactive

Would you mind doing CCCN1CCN(c2ccc3nc(-c4ccc5nc(-c6ccc(OCC)cc6)[nH]c5c4)[nH]c3c2)CC1 as well?
inactive

Cool, now C=C(C)C1CC(O)C2(C)CCCC3C2C1CC(C)C3(C)CC/C(C)=C/C(O)C1CCC(=O)c2c(OC)cc(OC)cc21 (configuration not stated)
inactive

Repeat with Cc1nn(-c2cc(=O)[nH]c3ccc(Cl)cc23)c(N)c1C#N
inactive

----------
System: SF-539 CNS
Assay: NCI-60 one-dose screen, 48 h
Conditions: 10 µM unless noted
Protocol: Cells are grown in 96 well plates and exposed to the test compound for 48 hours. Compounds are tested at a single concentration, which is 10^-5 M for most compounds. The reported endpoint is percent growth (GI% or GIPRCNT), where numbers from 0 - 100% represent growth inhibition, and numbers from -100% - 0 represent cell death. For example, a value of 40 represents 60% growth inhibition. A value of 0 means no net growth occurred over the course of the experiment. […]
This is part of a sample that, as a whole, favours compounds with a hit. Of some 83,000 tested, about 20% had one in any assay. The source made the active and inactive calls. Rule for the calls: active = growth percent below 10; inactive = the rest.
Outcome field: choose from active, inactive

Example results:
CCN(CC)c1ccc2c(c1)Oc1nc(N)c(C#N)c(N)c1C2Sc1ccc(SC)cc1 (centres undefined)	active
CC(=O)O[C@H]1CC[C@]2(C)[C@H]3CC=C4[C@@H]5CC(C)(C)CC[C@]5(C(=O)NCCNCCN)CC[C@@]4(C)[C@]3(C)CC[C@H]2C1(C)C	inactive
Clc1ccc2c(NCCCNc3nc(-n4ccnc4)nc4ccccc34)ccnc2c1	inactive
COc1ccc(-c2cc(C(=O)N=Nc3c(O)[nH]c4ccc(Br)cc34)no2)cc1	inactive
N#C/C(=C\c1ccc(-c2ccc(Cl)c(Cl)c2)o1)c1nc(-c2ccco2)cs1	inactive
COc1ccc(Nc2cc(C)nc(N3CCN(c4ccnc5cc(Cl)ccc45)CC3)n2)cc1	inactive
Clc1ccc2c(NCCNc3nc(N4CCCCC4)nc4ccccc34)ccnc2c1	active
Cn1c(NCCc2ccc(O)c(O)c2)nc2c1c(=O)n(Cc1ccc(Br)cc1)c(=O)n2C	inactive

Hello, I am checking results. What call was entered for COc1cc(Nc2cc(C)nc(N3CCN(c4ccnc5cc(Cl)ccc45)CC3)n2)cc(OC)c1 ?
active

And then O=C1C=C(O)C(=O)C(CC2=C(O)C(=O)C=C(O)C2=O)=C1O , what is it?
inactive

Further, for COc1ccc(C(=S)N2CCN(c3cccc(Cl)c3)CC2)cc1 ?
inactive

// query: COc1cc(C(=O)/C=C/c2cccnc2Nc2ccc(Cl)cc2)cc(OC)c1OC
active

What about this compound? O=C1Nc2c(ccc(Cl)c2Cl)/C1=C\c1ccc(C(F)(F)F)cc1
inactive

What do you have for CNc1ccc(-c2cc(=O)oc3ccc(Cl)cc23)cc1 ?
active

Same again, this time with c1csc(C2=NN3C(C2)c2ccccc2OC3c2ccncc2)c1 (centres undefined)
inactive

Check Cc1cc(C)nc(SC2=C(Nc3cccc(Cl)c3C)C(=O)N(Cc3ccccc3)C2=O)n1 too.
inactive

Likewise for Cc1cc(N2CCN(c3ccnc4cc(Cl)ccc34)CC2)nc(NC2CCCCC2)n1 ?
inactive

How about COc1ccc(S(=O)(=O)N2CC3(COC3)C2)cc1NC(=O)c1[nH]c(C)c2c1CCCCC2=O ?
inactive

Quick one: COc1cccc(/C=C2\SC(=Nc3ccc(NC(C)=O)cc3)NC2=O)c1OC
inactive

Would you kindly repeat that for CCOC(=O)c1csc(NC(=O)COc2cccc(/C=C3\CSc4ccccc4C3=O)c2)n1 ?
active

Note, next up: COCCNc1ccc2c3c(cccc13)C(=O)N(CCN(C)C)C2=O
inactive

Here is the next compound: CCN(CC)CCCCNc1c2ccc(Cl)cc2nc2ccc(OC)cc12
active

Another compound to look at: CCOC(=O)c1sc2nc(-c3cccc(OC)c3)nc(N3CCOCC3)c2c1C
inactive

Next entry: Cc1ncc(C(=O)Nc2ccc(CN3CCN(C)CC3)c(C(F)(F)F)c2)cc1C#Cc1cnc2cccnn12
active

Another compound to check: C=C(C)[C@@H]1CC[C@]2(C(=O)OC)CC[C@]3(C)[C@H](CC[C@@H]4[C@@]5(C)C/C(=C/c6ccc(OC)cc6)C(=O)C(C)(C)[C@@H]5CC[C@]43C)[C@@H]12
inactive

Now the compound Cn1nc(N)c2cc([C@@H]3Nc4ccc5[nH]ncc5c4[C@H]4C5CCC(C5)[C@@H]34)ccc21 (some centres undefined)
active

Param item: N#Cc1c(-c2ccc(Cl)cc2)nc(N/N=C/c2cccc(Br)c2)nc1N1CCOCC1
inactive

Same lookup for Cn1c(=O)[nH]c(=O)c2nc(CCC(=O)NCCC(=O)O)c(=O)[nH]c21 , please.
inactive

Can you check COc1ccc(C(=O)c2sc3nc(C)cc(C)c3c2N)cc1OC next?
inactive

All figures here come from PubChem BioAssay (NCI).
